Each recorded value in this set is attributed to ChEMBL document CHEMBL4270643.

- System: SK-BR-3
- protocol-notes: Antiproliferative activity against human SKBR3 cells after 48 hrs by CCK8 assay
- Format: functional, cell-based
- cond: Homo sapiens, SK-BR-3, 48 h; read-out: IC50
Please assign 0 (no) whenever IC50 is at or above 3 µM, and 1 (yes) whenever it is below.

Prompt line: is_below(IC50, 3 µM) for Cc1cc(Nc2nc(-c3ccccc3)nc3c([N+](=O)[O-])cccc23)n[nH]1 ?
Response line: 0 (no)

Prompt line: Proceed to Cc1cc(Nc2nc(-c3ccccc3)nc3cc(N4CCN(C)CC4)ccc23)n[nH]1
Response line: 1 (yes)

Prompt line: Proceed to CCOC(=O)C1CCN(c2ccc3c(Nc4cc(C)[nH]n4)nc(-c4ccccc4)nc3c2)CC1
Response line: 1 (yes)

Prompt line: Proceed to Cc1cc(Nc2nc(-c3ccccc3)nc3cc(F)ccc23)n[nH]1
Response line: 0 (no)

Prompt line: Proceed to Cc1cc(Nc2nc(-c3ccccc3)nc3cc([N+](=O)[O-])ccc23)n[nH]1
Response line: 0 (no)

Prompt line: Proceed to Cc1cc(Nc2nc(C(=O)c3ccccc3)nc3ccccc23)n[nH]1
Response line: 0 (no)

Prompt line: Proceed to Cc1cc(Nc2nc(-c3ccccc3)nc3cc(N4CCC(C(=O)O)CC4)ccc23)n[nH]1
Response line: 0 (no)

Prompt line: Proceed to Cc1cc(Nc2nc(Cc3ccccc3)nc3ccccc23)n[nH]1
Response line: 0 (no)

Prompt line: Proceed to COc1cccc2c(Nc3cc(C)[nH]n3)nc(-c3ccccc3)nc12
Response line: 1 (yes)

Prompt line: Proceed to COc1cccc(OC)c1C(=O)c1nc(Nc2cc(C)[nH]n2)c2ccc(N3CCC(C(=O)OC(C)(C)C)CC3)cc2n1
Response line: 1 (yes)

Prompt line: Proceed to COc1cccc2c(Nc3cc(C)[nH]n3)nc(Cc3ccccc3)nc12
Response line: 1 (yes)

Prompt line: Proceed to Cc1cc(Nc2nc(-c3ccc4ccccc4c3)nc3ccccc23)n[nH]1
Response line: 0 (no)

Prompt line: Proceed to Cc1cc(Nc2nc(-c3ccccc3)nc3ccccc23)n[nH]1
Response line: 1 (yes)

Prompt line: Proceed to Cc1cc(Nc2nc(C(C)C)nc3ccccc23)n[nH]1
Response line: 0 (no)

Prompt line: Proceed to CN1CCN(c2ccc3c(Nc4cc[nH]n4)nc(-c4ccccc4)nc3c2)CC1
Response line: 0 (no)

Prompt line: Proceed to COc1ccc2c(Nc3cc(C)[nH]n3)nc(-c3ccccc3)nc2c1
Response line: 1 (yes)

----------
- Species: Homo sapiens
- protocol-notes: Selectivity ratio of IC50 for Aurora B (unknown origin) to IC50 for Aurora A (unknown origin)
measure-name: Ratio IC50
Could you respond with only the numeric value?

Prompt line: Look up Ratio IC50: COc1ccc2c(Nc3cc(C)[nH]n3)nc(-c3ccccc3)nc2c1
Response line: 22

Prompt line: Proceed to Cc1cc(Nc2nc(-c3ccccc3)nc3ccccc23)n[nH]1
Response line: 30

Prompt line: Proceed to Cc1cc(Nc2nc(-c3ccccc3)nc3cc(N4CCN(C)CC4)ccc23)n[nH]1
Response line: 30

Prompt line: Proceed to COc1cccc2c(Nc3cc(C)[nH]n3)nc(Cc3ccccc3)nc12
Response line: 22

Prompt line: Proceed to Cc1cc(Nc2nc(-c3ccccc3)nc3cc(N4CCC(C(=O)O)CC4)ccc23)n[nH]1
Response line: 20

Prompt line: Proceed to Cc1cc(Nc2nc(-c3ccccc3)nc3c([N+](=O)[O-])cccc23)n[nH]1
Response line: 26

Prompt line: Proceed to CN1CCN(c2ccc3c(Nc4cc[nH]n4)nc(-c4ccccc4)nc3c2)CC1
Response line: 2.4

Prompt line: Proceed to COc1cccc2c(Nc3cc(C)[nH]n3)nc(-c3ccccc3)nc12
Response line: 21

Prompt line: Proceed to Cc1cc(Nc2nc(-c3ccccc3)nc3cc(F)ccc23)n[nH]1
Response line: 88

----------
- Species: Homo sapiens
- protocol-notes: Selectivity ratio of IC50 for Aurora B (unknown origin) to IC50 for Aurora A (unknown origin)
measure-name: Ratio IC50

Prompt line: Look up Ratio IC50: Cc1cc(Nc2nc(-c3ccccc3)nc3cc([N+](=O)[O-])ccc23)n[nH]1
Response line: > 308

Prompt line: Proceed to COc1ccc(C(=O)c2nc(Nc3cc(C)[nH]n3)c3ccc(Cl)cc3n2)cc1
Response line: > 134

Prompt line: Proceed to COc1cccc(OC)c1C(=O)c1nc(Nc2cc(C)[nH]n2)c2ccc(N3CCC(C(=O)OC(C)(C)C)CC3)cc2n1
Response line: > 276

----------
Aurora kinase B (Homo sapiens) IC50 data
Sequence (Q96GD4 whole entry): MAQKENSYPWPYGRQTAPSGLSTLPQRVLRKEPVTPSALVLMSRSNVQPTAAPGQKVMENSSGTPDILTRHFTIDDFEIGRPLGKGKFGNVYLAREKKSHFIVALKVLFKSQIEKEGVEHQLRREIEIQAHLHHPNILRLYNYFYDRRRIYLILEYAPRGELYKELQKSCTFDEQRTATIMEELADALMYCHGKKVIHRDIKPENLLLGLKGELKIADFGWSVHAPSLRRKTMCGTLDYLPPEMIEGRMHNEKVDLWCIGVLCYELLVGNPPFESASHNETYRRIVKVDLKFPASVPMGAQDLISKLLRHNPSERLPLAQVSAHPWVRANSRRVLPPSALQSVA

Prompt line: Look up IC50: COc1ccc2c(Nc3cc(C)[nH]n3)nc(-c3ccccc3)nc2c1
Response line: 773 nM

Prompt line: Proceed to Cc1cc(Nc2nc(-c3ccccc3)nc3ccccc23)[nH]n1
Response line: 858 nM

Prompt line: Proceed to COc1ccc(C(=O)c2nc(Nc3cc(C)[nH]n3)c3ccc(Cl)cc3n2)cc1
Response line: > 100000 nM

----------
Assign IC50 to each entry below.
- System: MCF7
- protocol-notes: Antiproliferative activity against human MCF7 cells after 48 hrs by CCK8 assay
- Assay type: functional, cell-based
- cond: Homo sapiens, MCF7, 48 h; read-out: IC50

Prompt line: Look up IC50: COc1cccc2c(Nc3cc(C)[nH]n3)nc(Cc3ccccc3)nc12
Response line: 6.28 µM

Prompt line: Proceed to Cc1cc(Nc2nc(Cc3ccccc3)nc3ccccc23)n[nH]1
Response line: 13.3 µM

Prompt line: Proceed to Cc1cc(Nc2nc(-c3ccccc3)nc3cc(F)ccc23)n[nH]1
Response line: > 30 µM

Prompt line: Proceed to COc1cccc2c(Nc3cc(C)[nH]n3)nc(-c3ccccc3)nc12
Response line: 4.17 µM

Prompt line: Proceed to Cc1cc(Nc2nc(-c3ccccc3)nc3cc([N+](=O)[O-])ccc23)n[nH]1
Response line: > 30 µM

Prompt line: Proceed to Cc1cc(Nc2nc(-c3ccccc3)nc3cc(Cl)ccc23)n[nH]1
Response line: > 30 µM

----------
- System: DU-145
- protocol-notes: Antiproliferative activity against human DU145 cells after 48 hrs by CCK8 assay
- Format: functional, cell-based
- cond: DU-145, 48 h
measure-name: IC50 (µM)
Hi! Could you send only the number? It should be in µM, unit omitted.

Prompt line: Look up IC50: CN1CCN(c2ccc3c(Nc4cc[nH]n4)nc(-c4ccccc4)nc3c2)CC1
Response line: 5.27

Prompt line: Proceed to Cc1cc(Nc2nc(-c3ccccc3)nc3c([N+](=O)[O-])cccc23)n[nH]1
Response line: 6.62

Prompt line: Proceed to Cc1cc(Nc2nc(Cc3ccccc3)nc3ccccc23)n[nH]1
Response line: 4.44

Prompt line: Proceed to Cc1cc(Nc2nc(C(C)C)nc3ccccc23)n[nH]1
Response line: 7.43

Prompt line: Proceed to COc1cccc2c(Nc3cc(C)[nH]n3)nc(-c3ccccc3)nc12
Response line: 6.36

----------
- System: DU-145
- protocol-notes: Antiproliferative activity against human DU145 cells after 48 hrs by CCK8 assay
- Assay type: functional, cell-based
- cond: DU-145, 48 h
Assign IC50 to each entry below.

Prompt line: Look up IC50: Cc1cc(Nc2nc(-c3ccccc3)nc3cc(F)ccc23)n[nH]1
Response line: > 30 µM

Prompt line: Proceed to Cc1cc(Nc2nc(C(=O)c3ccccc3)nc3ccccc23)n[nH]1
Response line: > 30 µM

Prompt line: Proceed to COc1cccc2c(Nc3cc(C)[nH]n3)nc(Cc3ccccc3)nc12
Response line: > 10 µM

Prompt line: Proceed to Cc1cc(Nc2nc(-c3ccccc3)nc3cc(Cl)ccc23)n[nH]1
Response line: > 30 µM
